Recorded Tm by entry
assay: melting temperature; melt of duplexes; conditions: sodium 0.0675 M; strand 1 µM

{"columns": ["substance", "measurement units", "Tm"],
 "data": [
  ["CGACGTGCACTATGTGCTG+CAGCACATGCGGCACGTCG ((((((((...((((((((+))))))))...))))))))", "°C", 43.3],
  ["CGACGTGCACGATGTGCTG+CAGCACATCGGGCACGTCG ((((((((.((((((((((+)))))))))).))))))))", "°C", 63.8],
  ["CGACGTGCAAGATGTGCTG+CAGCACATCACGCACGTCG ((((((((..(((((((((+)))))))))..))))))))", "°C", 53.8],
  ["CGACGTGCTCTATGTGCTG+CAGCACATGATGCACGTCG ((((((((...((((((((+))))))))...))))))))", "°C", 51.1],
  ["CGACGTGCTCTATGTGCTG+CAGCACATTGGGCACGTCG ((((((((.(.((((((((+)))))))).).))))))))", "°C", 53.4],
  ["CGACGTGCGTCATGTGCTG+CAGCACATCATGCACGTCG ((((((((.(.((((((((+)))))))).).))))))))", "°C", 50.8],
  ["CGACGTGCTAGATGTGCTG+CAGCACATTTTGCACGTCG ((((((((.(.((((((((+)))))))).).))))))))", "°C", 52],
  ["CGACGTGCCGAATGTGCTG+CAGCACATTTTGCACGTCG ((((((((..(((((((((+)))))))))..))))))))", "°C", 51.7],
  ["CGACGTGCCTTATGTGCTG+CAGCACATTTTGCACGTCG ((((((((...((((((((+))))))))...))))))))", "°C", 47.9],
  ["CGACGTGCGTGATGTGCTG+CAGCACATGTCGCACGTCG (((((((((..((((((((+))))))))..)))))))))", "°C", 55.2],
  ["CGACGTGCGACATGTGCTG+CAGCACATGTTGCACGTCG ((((((((.((((((((((+)))))))))).))))))))", "°C", 60.9],
  ["CGACGTGCGGGATGTGCTG+CAGCACATGAAGCACGTCG ((((((((...((((((((+))))))))...))))))))", "°C", 53.7],
  ["CGACGTGCGCAATGTGCTG+CAGCACATGTCGCACGTCG (((((((((..((((((((+))))))))..)))))))))", "°C", 56.1],
  ["CGACGTGCGGGATGTGCTG+CAGCACATCGTGCACGTCG ((((((((..(((((((((+)))))))))..))))))))", "°C", 56.2],
  ["CGACGTGCGTAATGTGCTG+CAGCACATACTGCACGTCG ((((((((...((((((((+))))))))...))))))))", "°C", 52.4]
]}
